TEST SUMMARY: folding stability dG unfold from chymotrypsin proteolysis; higher = more stable
EXPERIMENTAL READOUT: folding stability dG unfold (kcal/mol)
The response must be a number in kcal/mol with no trailing unit.

SAGGEELMKDHPNFIFITIEIRHPGGGKEKPKFMIMIPNNTPEELIDELRDFLPPGYKIKDVEIHYMDSAGG [r13_849_TrROS]: 1.72
SAGGSAGGSANGFVFKIKEVFEVDGKLFLKVTGTDKEYIIPDNAIIEPLEDDSVKVIILPPESAGGSAGGSA [r18_468_TrMRF]: 1.35
SAGVEPTPDGKWRIEINPEEGHIRVRMKNGEPHEIPFPEGSLDDFADEIAEKMGFPPDKPFKIDEIEIWSAG [r5_923_TrROS]: -0.0363
SAGGSAGGSMTVTYTEVGDQLVVTTPDGRRYVITLSGDVTYDPATGTVTVPPGETMTPVPVPASAGGSAGGS [r20_158_JUSTAS]: 2.13
SMKITEIEPDGDGTLEIEIPVEAPPGMDPDEVQIYVMSDDGIRHVRITPNGTVEITIENIPDIRIYIFVHSA [r9_722_TrROS]: 2.47

Item under review: SAGGGPMPKPVEEVVEEEEDGLRVTTRITYLPTSSTTVVRTTRTVFDPRNGRPLETEELTETVPPGSSAGGS [r16_709_JUSTAS] . Reported folding stability dG unfold?
-0.0368
